- measurement_context: 350.15 K; Liquid; Closed cell (Static) method
metric_name: vapor or sublimation pressure (kPa)
Give just the number in kPa; leave the unit off.

Recorded vapor or sublimation pressure, per entry:
Cc1cccc(C)c1 = 13.44
CC(O)COC(C)COC(C)CO (centres undefined) [2-[2-(2-hydroxypropoxy)propoxy]-1-propanol] = 0.039
Cc1ccc(C)cc1 = 13.9

Attention now turns to another entry.
Query :: Quote vapor or sublimation pressure reported for Cc1ccccc1C please.
Result :: 11.27

meta.source: the NIST ThermoML archive (doi:10.1016/j.fluid.2016.05.032)
